- Tested On: Dual specificity tyrosine-phosphorylation-regulated kinase 1A (Rattus norvegicus)
- Experiment Description: Inhibition of GST-tagged rat recombinant DYRK1A expressed in Escherichia coli using myelin basic protein as substrate and [gamma-33P]ATP after 30 mins by scintillation counting
Parameter: IC50. Scope: all listed entries.

Worked examples, 2 compounds total:
Inquiry: Could you share which IC50 value was measured for `O=c1oc2ccccc2c2c1[nH]c1ccccc12` ?
Reply text: > 10 µM

Inquiry: Another: `O=c1oc2ccc(O)cc2c2c1[nH]c1ccc(C(F)(F)F)cc12`
Reply text: ≥ 10 µM

---
Inquiry: Can you share its IC50? I mean this compound: `COc1ccc(-c2ccc3c(c2)[nH]c2c(=O)oc4ccc(O)cc4c23)cc1`
Reply text: > 10 µM

Inquiry: Next record, please: `O=c1oc2ccccc2c2c1[nH]c1cccc(-c3ccc(O)cc3)c12`
Reply text: ≥ 10 µM

Inquiry: What about `COc1cccc2oc(=O)c3[nH]c4ccccc4c3c12` ?
Reply text: > 10 µM

Inquiry: Field entry: `O=c1oc2ccc(O)cc2c2c1[nH]c1cccc(-c3ccc(O)cc3)c12`
Reply text: ≥ 10 µM

###

- Tested On: Glycogen synthase kinase-3 (Sus scrofa, UniProt B2LUN4+I6LNT8)
- Experiment Description: Inhibition of porcine brain GSK3alpha/beta using GS-1 as substrate
Attribute Measured: IC50

Inquiry: Field request: IC50 | item: `O=c1oc2ccc(O)cc2c2c1[nH]c1cc3c(cc12)OCO3`
Reply text: > 10 µM

Inquiry: Check `Cc1cccc2[nH]c3c(=O)oc4ccc(O)cc4c3c12` too.
Reply text: 5.9 µM

Next, consider the following molecule.
Inquiry: So what does the record say about IC50 for `O=c1oc2ccccc2c2c1[nH]c1cccc(-c3ccc(O)cc3)c12` ?
Reply text: > 10 µM

###

- Tested On: Cyclin-dependent kinase 5/CDK5 activator 1 (Homo sapiens, UniProt Q00535)
- Sequence (Q00535 whole entry): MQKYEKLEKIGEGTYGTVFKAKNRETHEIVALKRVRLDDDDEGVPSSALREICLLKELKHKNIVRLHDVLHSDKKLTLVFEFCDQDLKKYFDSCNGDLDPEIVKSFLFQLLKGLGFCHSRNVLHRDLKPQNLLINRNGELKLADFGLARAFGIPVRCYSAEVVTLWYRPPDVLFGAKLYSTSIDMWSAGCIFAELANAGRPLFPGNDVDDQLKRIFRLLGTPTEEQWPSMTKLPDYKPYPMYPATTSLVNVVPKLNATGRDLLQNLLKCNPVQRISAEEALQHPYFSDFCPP
- Sequence (Q15078 whole entry, further chain): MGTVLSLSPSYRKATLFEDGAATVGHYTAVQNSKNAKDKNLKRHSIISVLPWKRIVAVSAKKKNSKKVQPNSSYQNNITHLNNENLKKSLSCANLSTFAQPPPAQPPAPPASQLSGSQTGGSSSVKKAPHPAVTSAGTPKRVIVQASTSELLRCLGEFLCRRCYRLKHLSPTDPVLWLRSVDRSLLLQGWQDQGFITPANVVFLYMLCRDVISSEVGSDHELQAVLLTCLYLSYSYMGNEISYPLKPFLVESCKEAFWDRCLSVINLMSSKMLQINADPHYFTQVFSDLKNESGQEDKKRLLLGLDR
- Experiment Description: Inhibition of human recombinant CDK5/p25 using [gamma-33P]ATP after 30 mins by scintillation counting
Attribute Measured: pIC50
Hey, just a heads up that pIC50 is the negative log base 10 of the concentration in molar.

Please review the entries below; each comes with its answer.
Inquiry: Dear colleague, I am looking for the recorded pIC50 of the following molecule: `O=c1oc2cc(O)ccc2c2c1[nH]c1ccccc12`
Reply text: 5.33

Inquiry: Same question for `O=c1oc2cc(O)ccc2c2c1[nH]c1ccc(O)cc12` please.
Reply text: 5.38

Inquiry: Follow-up entry: `O=c1oc2ccc(O)cc2c2c1[nH]c1ccc(O)cc12`
Reply text: 6.14

Continue with the next molecule.
Inquiry: Entry `O=c1oc2ccc(O)cc2c2c1[nH]c1ccccc12` has what pIC50?
Reply text: 5.57

###

- Tested On: Cyclin-dependent kinase 5/CDK5 activator 1 (Homo sapiens, UniProt Q00535)
- Experiment Description: Inhibition of human recombinant CDK5/p25 using [gamma-33P]ATP after 30 mins by scintillation counting
Attribute Measured: IC50

Inquiry: Which IC50 value belongs to `COc1cccc2oc(=O)c3[nH]c4ccccc4c3c12` ?
Reply text: > 10 µM

Inquiry: What about `COc1ccc(-c2ccc3c(c2)[nH]c2c(=O)oc4ccc(O)cc4c23)cc1` ?
Reply text: > 10 µM

Inquiry: Please answer likewise for `O=c1oc2ccc(O)cc2c2c1[nH]c1cccc(-c3ccc(O)cc3)c12`
Reply text: ≥ 10 µM

More entries:
Inquiry: Form field: reported IC50 of `O=c1oc2ccccc2c2c1[nH]c1cccc(-c3ccc(O)cc3)c12`
Reply text: ≥ 10 µM

Inquiry: `O=c1oc2ccc(O)cc2c2c1[nH]c1cc(O)ccc12` ?
Reply text: > 10 µM

Inquiry: Another compound to check: `COc1cccc2[nH]c3c(=O)oc4ccc(O)cc4c3c12`
Reply text: ≥ 10 µM
